I'd be grateful if you could share measured Antifol + FU for these entries.
- Test system: HT29 human colon adenocarcinoma cells
Where a name gives a salt, the structure may show the parent alone.

Measured Antifol + FU, CC(=O)c1ccc(N2CCN(c3c(C)nc(N)nc3N)CC2)cc1 [D] : 50% of control

Note to self: Antifol + FU recorded for Cc1nc(N)nc(N)c1N1CCN(c2ccc(C(=O)NN)cc2)CC1 [Example 11] was 42% of control

Antifol + FU reading for Cc1nc(N)nc(N)c1N1CCN(c2ccc(/C=N/OCCN)cc2)CC1 [Example 12, dihydrochloride] : 35% of control

Sample CC(=O)c1ccc(N2CCN(c3c(C)nc(N)nc3N)CC2)cc1F [H] ; Antifol + FU observed: 52% of control

###

- Tested on: P388/ADR cells
- ASSAY COMMENT: Combination of antifolates with FU and LV on P388/ADR proliferation
- Assay type: cell-based, murine
- CONDITIONS: P388/ADR; antifolate 1 nM 24 hours, LV 10 μM final 4.5 hours, 5 μM FU final 4 hours
Where a name gives a salt, the structure may show the parent alone.
Consider the following compounds; for each one, report its Antifol + LV + FU.

Entry Cc1nc(N)nc(N)c1N1CCN(c2ccc(/C=N/OCCN)cc2)CC1 [Example 12, dihydrochloride] ; assay system P388/ADR cells; Antifol + LV + FU recorded at 25% of control

Item Cc1nc(N)nc(N)c1N1CCN(c2ccc(C(=O)O)cc2)CC1 [B] was tested on P388/ADR cells; the reported Antifol + LV + FU is 28% of control

P388/ADR cells data for Cc1nc(N)nc(N)c1N1CCN(c2ccc(C(=O)NN)cc2)CC1 [Example 11] ; its Antifol + LV + FU: 16% of control

Reported Antifol + LV + FU (P388/ADR cells) for entry CCOC(=O)CCC(NC(=O)c1ccc(N2CCN(c3c(N)nc(N)nc3CC)CC2)cc1)C(=O)OCC (stereo not shown) [C] is 30% of control

###

Hi there, I'd appreciate the recorded Antifol for every entry that follows.
- Tested on: P388 murine leukemia cells
- ASSAY COMMENT: Combination of antifolates with FU and LV on P388 proliferation
- Type: cell-based
- CONDITIONS: antifolate 1.0 nM, 24 hours
Where a name gives a salt, the structure may show the parent alone.

So, Cc1nc(N)nc(N)c1N1CCN(c2ccc(C(=O)N(C)N)cc2)CC1 [Example 13] ? Its Antifol was 85% of control

Record summary for CC(=O)c1ccc(N2CCN(c3c(C)nc(N)nc3N)CC2)cc1 [D] : reported Antifol = 70% of control

The recorded Antifol for entry CC(=O)c1ccc(N2CCN(c3c(C)nc(N)nc3N)CC2)cc1F [H] equals 82% of control

The compound listed as COc1cc(NCc2ccc3nc(N)nc(N)c3c2C)cc(OC)c1OC [Trimetrexate, reference compound] shows Antifol equal to 80% of control

Lookup result for Cc1nc(N)nc(N)c1N1CCN(c2ccc(/C=N/OCCN)cc2)CC1 [Example 12, dihydrochloride] ; measured Antifol: 100% of control

###

- Test system: HT29 human colon adenocarcinoma cells
- ASSAY COMMENT: Combination of antifolates with FU and LV on HT-29 proliferation (sulphorhodamine B)
- CONDITIONS: antifolate 62.5 nM, 24 hours
Where a name gives a salt, the structure may show the parent alone.
For each entry below, report its Antifol value.

The recorded Antifol for COc1cc(NCc2ccc3nc(N)nc(N)c3c2C)cc(OC)c1OC [Trimetrexate, reference compound] is 75% of control

Input CC(=O)c1ccc(N2CCN(c3c(C)nc(N)nc3N)CC2)cc1F [H] . Output Antifol: 74% of control

Entry Cc1nc(N)nc(N)c1N1CCN(c2ccc(C(=O)NN)cc2)CC1 [Example 11] , Antifol reported as 87% of control

For record Cc1nc(N)nc(N)c1N1CCN(c2ccc(/C=N/OCCN)cc2)CC1 [Example 12, dihydrochloride] the listed Antifol is 52% of control

For CC(=O)c1ccc(N2CCN(c3c(C)nc(N)nc3N)CC2)cc1 [D] the compound record lists Antifol as 92% of control
